Hi there, I'd appreciate the recorded IC50 for every entry that follows.
- System under test: E. coli DNA gyrase (Escherichia coli, UniProt P0AES4+P0AES6)
- Sequence (P0AES4 whole entry, one chain of several): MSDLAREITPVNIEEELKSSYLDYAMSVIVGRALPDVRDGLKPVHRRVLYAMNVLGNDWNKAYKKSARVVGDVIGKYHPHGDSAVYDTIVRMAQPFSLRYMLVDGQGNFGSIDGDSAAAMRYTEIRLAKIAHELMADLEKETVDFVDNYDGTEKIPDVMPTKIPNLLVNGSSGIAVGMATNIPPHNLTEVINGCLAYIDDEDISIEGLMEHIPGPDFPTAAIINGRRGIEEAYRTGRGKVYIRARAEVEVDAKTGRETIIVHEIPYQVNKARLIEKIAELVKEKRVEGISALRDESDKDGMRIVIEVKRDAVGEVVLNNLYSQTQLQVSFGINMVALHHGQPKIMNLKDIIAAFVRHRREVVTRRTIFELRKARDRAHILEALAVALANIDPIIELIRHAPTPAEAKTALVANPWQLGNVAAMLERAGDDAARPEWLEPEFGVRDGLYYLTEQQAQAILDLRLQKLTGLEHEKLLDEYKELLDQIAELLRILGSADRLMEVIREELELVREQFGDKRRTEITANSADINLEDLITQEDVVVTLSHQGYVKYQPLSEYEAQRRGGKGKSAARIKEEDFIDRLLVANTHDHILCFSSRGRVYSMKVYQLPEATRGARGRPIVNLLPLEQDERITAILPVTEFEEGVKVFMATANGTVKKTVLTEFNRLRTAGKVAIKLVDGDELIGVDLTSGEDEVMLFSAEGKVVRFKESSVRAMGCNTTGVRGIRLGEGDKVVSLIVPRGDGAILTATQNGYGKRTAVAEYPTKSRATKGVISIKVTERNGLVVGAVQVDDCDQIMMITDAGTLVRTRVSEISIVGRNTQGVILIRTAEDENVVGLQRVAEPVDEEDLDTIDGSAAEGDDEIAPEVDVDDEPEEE
- Measurement description: Agarose gel-based DNA supercoiling assay
- Condition label: gel supercoiling assay, 1 unit of gyrase (12 nM); read-out: Approx. IC50 against E. coli DNA gyrase
# unit: µM | format: bare number

What value of IC50 has been recorded for this entry: Cc1ccc(C(=O)Nc2ccc(S(=O)(=O)O)c3cc(S(=O)(=O)O)cc(S(=O)(=O)O)c23)cc1NC(=O)c1cccc(NC(=O)Nc2cccc(C(=O)Nc3cc(C(=O)Nc4ccc(S(=O)(=O)O)c5cc(S(=O)(=O)O)cc(S(=O)(=O)O)c45)ccc3C)c2)c1 [Suramin]
80

// next record O=C1c2c(O)ccc(O)c2C(=O)c2c(NCCNCCO)ccc(NCCNCCO)c21 [Mitoxantrone]
12
